target: HIV-1 NefNL4-3 (Human immunodeficiency virus type 1 group M subtype B, UniProt P03406, A33V/T15A/T51N/V11I); test: Surface plasmon resonance binding to recombinant full-length Nef (NL4-3)
pKd: −log10 of the molar value.
The label depends only on pKd: Yes if it is at least 6, No if it is smaller.

[
  {
    "compound": "Oc1c(CC2CCN(CC(F)(F)F)CC2)c(-c2ccc(C(F)(F)F)cc2)nn1-c1nc2ccccc2[nH]1",
    "class": "Yes"
  },
  {
    "compound": "Cc1nn(-c2nc3ccccc3[nH]2)c(O)c1Cc1ccc(Cl)cc1F",
    "class": "Yes"
  },
  {
    "compound": "CS(=O)(=O)N1CCC(CCc2c(-c3ccc(C(F)(F)F)cn3)nn(-c3nc4cc(Br)ccc4[nH]3)c2O)CC1",
    "class": "Yes"
  },
  {
    "compound": "Cc1ccc(-c2nn(-c3nc4ccccc4[nH]3)c(O)c2CCc2ccc(F)cc2)cc1",
    "class": "No"
  },
  {
    "compound": "O=C(c1cccc(O)n1)N1CCC(Cc2nn(-c3nc4ccccc4[nH]3)c(O)c2CCc2ccc(F)cc2)CC1",
    "class": "Yes"
  }
]

Qu. Hello, I need to know if O=C(OCc1ccccc1)N1CCC(c2nn(-c3nc4cccc(Cl)c4[nH]3)c(O)c2CCc2ccc(F)cc2)CC1 has measured pKd not below 6. Thanks!
Ans. Yes

Qu. Assess whether reported pKd for O=C1CN(Cc2nn(-c3nc4ccccc4[nH]3)c(O)c2CCc2ccc(F)cc2)CCN1c1ccccc1 sits at 6 or higher.
Ans. No

Qu. I'd appreciate it if you could say whether Oc1c(CCc2ccc(F)cc2)c(CN2CCOCC2)nn1-c1nc2ccccc2[nH]1 has pKd at least equal to 6.
Ans. No

Qu. Kindly determine if pKd recorded for CC(C)(O)C(=O)N1CCC(c2nn(-c3nc4ccccc4[nH]3)c(O)c2CCc2ccc(F)cc2)CC1 is above or exactly 6.
Ans. No

Qu. pKd >= 6 for O=C(c1cnccn1)N1CCC(Cc2nn(-c3nc4ccccc4[nH]3)c(O)c2CCc2ccc(F)cc2)CC1 ?
Ans. Yes

Qu. Please indicate if the recorded pKd for O=C(OCc1ccccc1)N1CCCC(Cc2nn(-c3nc4ccccc4[nH]3)c(O)c2CCc2ccc(F)cc2)C1 (centres unmarked) meets or exceeds 6.
Ans. Yes

Qu. Kindly determine if pKd recorded for Oc1c(CCc2ccc(F)cc2)c(-c2ccc(C(F)(F)F)cn2)nn1-c1nc2ccccc2[nH]1 is above or exactly 6.
Ans. Yes

Qu. Quick check: does CC(C)(O)C(=O)N1CCC(CCc2c(-c3cccc(S(C)(=O)=O)c3)nn(-c3nc4ccccc4[nH]3)c2O)CC1 have pKd greater than or equal to 6?
Ans. Yes

====

biological target: HIV-1 NefNL4-3 (Human immunodeficiency virus type 1 group M subtype B, UniProt P03406, A33V/T15A/T51N/V11I); experiment: Surface plasmon resonance binding to recombinant full-length Nef (NL4-3); details: response units at 30 μM relative to Nef immobilized on the SPR chip
Quick reference: RU30/RUNef (extent of binding) of the listed items.
# output: bare number, implied unit E- 02

Example cases with answers are listed next.
[
  {
    "compound": "Oc1c(CC2CCCCO2)c(-c2ccc(C(F)(F)F)cc2)nn1-c1nc2ccccc2[nH]1 (centres unmarked) [Compound I-122]",
    "RU30/RUNef (extent of binding) (E- 02)": 1.07
  },
  {
    "compound": "O=C(NCC1CC1)c1ccc(-c2nn(-c3nc4ccccc4[nH]3)c(O)c2CCc2ccc(F)cc2)cc1 [Compound I-1201]",
    "RU30/RUNef (extent of binding) (E- 02)": 2.17
  },
  {
    "compound": "Oc1c(CCc2ccc(F)cc2)c(C2CCOCC2)nn1-c1cc(C(F)(F)F)n[nH]1 [Compound I-623]",
    "RU30/RUNef (extent of binding) (E- 02)": 1.67
  }
]

Qu. Param item = Oc1c(CCc2ccc(F)cc2)c(-c2ccc(F)cc2)nn1-c1nc2cc(Cl)ccc2[nH]1 [Compound I-172] ; retrieve measured RU30/RUNef (extent of binding).
Ans. 4.28

Qu. Please give the measured RU30/RUNef (extent of binding) for this compound: CS(=O)(=O)c1ccc(-c2nn(-c3nc4ccccc4[nH]3)c(O)c2CCc2ccc(F)cc2)cc1 [Compound I-148]
Ans. 1.32

Qu. Need RU30/RUNef (extent of binding), item Cn1c(-n2nc(-c3ccc(C(F)(F)F)cc3)c(CCc3ccc(F)cc3)c2O)nc2ccccc21 [Compound I-401]
Ans. 2.01

Qu. I have this compound here, Oc1c(CC2CCCC2)c(-c2ccc(C(F)(F)F)cc2)nn1-c1nc2ccccc2[nH]1 [Compound I-123] , and I need its recorded RU30/RUNef (extent of binding).
Ans. 2.57

====

biological target: HIV-1 NefNL4-3 (Human immunodeficiency virus type 1 group M subtype B, UniProt P03406, A33V/T15A/T51N/V11I); experiment: Surface plasmon resonance binding to recombinant full-length Nef (NL4-3); settings: Table 4; 1:1 Langmuir fit; T = 1/koff
reported.metric: T, minutes (residence time) (E + 01 minutes)
Provide the reading as a plain figure in E + 01 minutes.

Guide cases for T, minutes (residence time), answers given:
[
  {
    "molecule": "CS(=O)(=O)N1CCC(CCc2c(-c3ccc(C(F)(F)F)cn3)nn(-c3nc4cc(Br)ccc4[nH]3)c2O)CC1 [Compound I-775]",
    "T, minutes (residence time) [E + 01 minutes]": 4.26
  },
  {
    "molecule": "Oc1c(CCc2ccc(F)cc2)c(C2CCN(Cc3cccnc3)CC2)nn1-c1nc2ccccc2[nH]1 [Compound I-803]",
    "T, minutes (residence time) [E + 01 minutes]": 1.59
  },
  {
    "molecule": "Oc1c(CC2CCOCC2)c(-c2ccc(F)cc2)nn1-c1nc2cccnc2[nH]1 [Compound I-313]",
    "T, minutes (residence time) [E + 01 minutes]": 2.92
  },
  {
    "molecule": "Cc1ccn(CCc2c(-c3ccc(C(F)(F)F)cc3)nn(-c3nc4cccnc4[nH]3)c2O)n1 [Compound I-303]",
    "T, minutes (residence time) [E + 01 minutes]": 9.47
  }
]

Qu. Return reported T, minutes (residence time); argument: Oc1c(CCn2cc(Cl)cn2)c(-c2ccc(C(F)(F)F)cc2)nn1-c1nc2ccccc2[nH]1 [Compound I-143]
Ans. 1.75

====

# T, minutes (residence time) listing for each entry below
molecular target: HIV-1 NefNL4-3 (Human immunodeficiency virus type 1 group M subtype B, UniProt P03406, A33V/T15A/T51N/V11I); experiment: Surface plasmon resonance binding to recombinant full-length Nef (NL4-3); conditions: Table 4; 1:1 Langmuir fit; T = 1/koff
State just the number; it will be interpreted in E + 04 minutes.

[
  {
    "cpd.smiles": "Oc1c(CCc2ccc(Br)cc2)c(-c2ccc(C(F)(F)F)cn2)nn1-c1nc2ccccc2[nH]1",
    "T, minutes (residence time) (E + 04 minutes)": 4.30
  },
  {
    "cpd.smiles": "Oc1c(CCc2ccc(F)cc2)c(-c2ccc(C(F)(F)F)cc2)nn1-c1nc2ccncc2[nH]1",
    "T, minutes (residence time) (E + 04 minutes)": 1.78
  }
]

Qu. Quick one: T, minutes (residence time) for COC(=O)N1CCC(CCc2c(-c3ccc(C(F)(F)F)cn3)nn(-c3nc4cc(Br)ccc4[nH]3)c2O)CC1 ?
Ans. 1.00

====

biological target: HIV-1 NefNL4-3 (Human immunodeficiency virus type 1 group M subtype B, UniProt P03406, A33V/T15A/T51N/V11I); experiment: Surface plasmon resonance binding to recombinant full-length Nef (NL4-3); conditions: Table 4; 1:1 Langmuir fit; T = 1/koff
Form field: T, minutes (residence time) (one value per entry).
Numeric only. Scale: E + 03 minutes

[
  {
    "cpd.smiles": "O=C(OCc1ccccc1)N1CCC(c2nn(-c3nc4cccc(Cl)c4[nH]3)c(O)c2CCc2ccc(F)cc2)CC1",
    "T, minutes (residence time) [E + 03 minutes]": 2.07
  }
]

Attention now shifts to the item below.
Qu. Which T, minutes (residence time) value belongs to O=C(OCc1ccccc1)N1CCC(Cc2c(-c3ccc(C(F)(F)F)cc3)nn(-c3nc4ccccc4[nH]3)c2O)CC1 ?
Ans. 8.05
